Target or system SYK kinase (Homo sapiens, UniProt P43405); metric Ki; compiled from varied reports.

Here are 10 compounds together with their reported answers.
{"columns": ["smilesStr", "reading"],
 "data": [
  ["COc1cc(OC)c2nc(Nc3ccc(OC)c(OC)c3)c3n[nH]cc3c2c1", "< 10 nM"],
  ["COc1ccc(-c2nc(Nc3ccc(N4CCN(C)CC4)cc3)c3[nH]ncc3n2)cc1OC", "< 10 nM"],
  ["COc1ccc(Nc2nc3ccccc3c3c[nH]nc23)cn1", "100 to 1000 nM"],
  ["COc1ccc(Nc2nc3ccccc3c3c([N+](=O)[O-])[nH]nc23)cc1OC", "100 to 1000 nM"],
  ["Cc1[nH]nc2c(Nc3ccc4cn[nH]c4c3)nc3cc(C#N)ccc3c12", "100 to 1000 nM"],
  ["COc1ccc2c(c1)nc(Nc1ccc3[nH]ncc3c1)c1n[nH]cc12", "10 to 100 nM"],
  ["CN(C)Cc1ccc(-c2cnc3[nH]cc(-c4oncc4-c4cccc(F)c4F)c3c2)nc1", "1000 to 12500 nM"],
  ["COc1ccc(Nc2nc(-c3ccc4c(c3)NCCO4)nc3cn[nH]c23)cc1OC", "< 10 nM"],
  ["COc1ccc(Nc2nc(-c3cccc(N4CCOCC4)c3)nc3cn[nH]c23)cc1OC", "10 to 100 nM"],
  ["CN1CCN(c2ccc(Nc3nc(-c4cccc(N5CCOCC5)c4)nc4cn[nH]c34)cc2)CC1", "10 to 100 nM"]
]}

-- ask Fetch value of Ki on SYK kinase (Homo sapiens, UniProt P43405) for CN(C)c1cccc(-c2cnc3[nH]cc(-c4oncc4-c4cccc(F)c4F)c3c2)c1 .
-- reply 1000 to 12500 nM

-- ask Look up SYK kinase (Homo sapiens, UniProt P43405) data: Ki of CN1CCCN(c2ccc(Nc3nc4ccccc4c4c[nH]nc34)cc2)CC1 , then report it.
-- reply 100 to 1000 nM

-- ask Output reported Ki of the compound O=C1COc2ccc(Nc3nc(-c4ccncc4)nc4cn[nH]c34)cc2N1 on SYK kinase (Homo sapiens, UniProt P43405).
-- reply 100 to 1000 nM

-- ask Provide Ki, recorded with SYK kinase (Homo sapiens, UniProt P43405), of COc1ccc2nc(Nc3ccc(C(=O)N4CCCC4)cc3)c3n[nH]cc3c2c1
-- reply 100 to 1000 nM

-- ask Provide the reported Ki (system: SYK kinase (Homo sapiens, UniProt P43405)) for COc1ccc(Nc2nc(-c3ccc(C(=O)O)cc3)nc3cn[nH]c23)cc1OC
-- reply < 10 nM

-- ask Quote Ki with test system SYK kinase (Homo sapiens, UniProt P43405) for COc1ccc2nc(Nc3ccc(N4CCN(C)CC4)nc3)c3n[nH]cc3c2c1
-- reply 10 to 100 nM

-- ask // fetch Ki for CN1CCN(c2ccc(Nc3nc(-c4ccc5cn[nH]c5c4)nc4cn[nH]c34)cc2)CC1 ; system: SYK kinase (Homo sapiens, UniProt P43405)
-- reply < 10 nM

----------
Literature Ki values, system: SYK kinase (Homo sapiens).

Example compounds with recorded Ki:
{"columns": ["smilesStr", "Ki"],
 "data": [
  ["CN(C)Cc1ccnc(-c2cnc3[nH]cc(-c4oncc4-c4cccc(F)c4F)c3c2)c1", "1000 to 12500 nM"],
  ["COc1ccc2nc(Nc3cccc(N4CCOCC4)c3)c3[nH]ncc3c2c1", "100 to 1000 nM"],
  ["COc1ccc2nc(Nc3ccc(CCN4CCOCC4)cc3)c3n[nH]cc3c2c1", "10 to 100 nM"],
  ["COc1ccc(Nc2nc(-c3cccc(Cl)c3)nc3cn[nH]c23)cc1OC", "10 to 100 nM"],
  ["CC(=O)N1CCN(c2ccc(Nc3nc(-c4ccc5c(c4)NC(=O)CO5)nc4cn[nH]c34)cc2)CC1", "< 10 nM"],
  ["COc1ccc(-c2nc(Nc3ccc(N4CCN(C(C)(C)C)CC4)cc3)c3[nH]ncc3n2)cc1", "< 10 nM"]
]}

-- ask Report its Ki with SYK kinase (Homo sapiens) as the test system: O=C1COc2ccc(Nc3nc(-c4ccccc4)nc4cn[nH]c34)cc2N1
-- reply 10 to 100 nM

-- ask Consider the compound COc1ccc2nc(Nc3ccc4[nH]ccc4c3)c3[nH]ncc3c2c1 tested on SYK kinase (Homo sapiens); state its Ki.
-- reply 100 to 1000 nM
